Where these numbers come from: patent US9884063B2

Molecular target: TNKS2 (Homo sapiens)
Sequence (Q9H2K2 whole entry): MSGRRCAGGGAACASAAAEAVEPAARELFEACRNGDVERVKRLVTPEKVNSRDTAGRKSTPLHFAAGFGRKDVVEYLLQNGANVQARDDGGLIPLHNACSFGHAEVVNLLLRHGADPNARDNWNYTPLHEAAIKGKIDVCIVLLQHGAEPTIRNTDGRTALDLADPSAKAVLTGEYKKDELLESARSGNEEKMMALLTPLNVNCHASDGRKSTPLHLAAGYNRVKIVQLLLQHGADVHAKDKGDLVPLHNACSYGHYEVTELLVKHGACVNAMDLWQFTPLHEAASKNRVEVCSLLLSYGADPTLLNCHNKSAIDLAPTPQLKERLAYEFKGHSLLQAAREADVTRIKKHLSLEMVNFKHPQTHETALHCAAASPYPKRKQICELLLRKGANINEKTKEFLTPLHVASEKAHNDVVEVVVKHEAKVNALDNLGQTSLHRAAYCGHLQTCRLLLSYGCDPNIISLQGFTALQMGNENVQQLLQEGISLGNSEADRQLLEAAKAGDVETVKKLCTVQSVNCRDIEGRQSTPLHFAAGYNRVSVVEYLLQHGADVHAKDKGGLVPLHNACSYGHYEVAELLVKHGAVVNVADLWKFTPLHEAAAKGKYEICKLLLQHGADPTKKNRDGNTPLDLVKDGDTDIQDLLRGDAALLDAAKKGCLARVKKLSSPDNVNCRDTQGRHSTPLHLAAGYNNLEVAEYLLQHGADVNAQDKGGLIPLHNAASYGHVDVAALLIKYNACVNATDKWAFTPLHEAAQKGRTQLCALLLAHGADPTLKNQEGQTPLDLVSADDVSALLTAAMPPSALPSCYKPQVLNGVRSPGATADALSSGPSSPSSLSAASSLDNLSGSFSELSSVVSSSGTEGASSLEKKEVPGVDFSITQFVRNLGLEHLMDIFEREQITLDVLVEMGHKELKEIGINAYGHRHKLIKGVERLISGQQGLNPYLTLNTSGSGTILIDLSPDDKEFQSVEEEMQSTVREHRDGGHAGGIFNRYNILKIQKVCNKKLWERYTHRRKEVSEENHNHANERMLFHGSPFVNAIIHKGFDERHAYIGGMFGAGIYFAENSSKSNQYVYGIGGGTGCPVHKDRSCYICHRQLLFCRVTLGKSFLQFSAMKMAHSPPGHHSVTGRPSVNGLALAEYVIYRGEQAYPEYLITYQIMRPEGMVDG
Test: Modified TNKS2 Assay 2 (auto-parsylation, [3H]-NAD+ SPA)
Type: biochemical
Settings: 6 nM TNKS2, 96 well
Measurement kind: IC50

Record excerpt, results attached:
{"Chem smiles": "CNC(=O)c1nc[nH]c1C(=O)Nc1ccc(NC(=O)c2c(Cl)cccc2C(F)(F)F)cc1", "Test result": "> 10 µM"}
{"Chem smiles": "CNC(=O)c1nc[nH]c1C(=O)Nc1ccc(NC(=O)c2ccccc2OC)cc1", "Test result": "> 10 µM"}

The record that follows has no IC50 shown yet.
stdin: Item: CNC(=O)c1nc[nH]c1C(=O)Nc1ccc(NC(=O)c2cc(OCCN3CCCCC3)ccc2Cl)cc1 Test system: TNKS2 (Homo sapiens) Read-out: IC50 Value: ?
stdout: > 10 µM
